target: T1, Fyn SH2 domain (142-248) (human, UniProt P06241 142-248, biotin (on the AviTag)); assay: fluorescence polarisation; competition mode; unlabelled phosphopeptide against 0.4 nM FITC-Ahx-GDG-pY-EEISPLLL-NH2 and 4.125 nM Fyn SH2, as printed (Tables S3 and S5); settings: both partners purified
T1 construct: SH2 domain of human Fyn kinase, residues 142-248; source: E. coli C43(DE3) with BirA helper plasmid, purified (HisTrap, anion exchange, Ulp1 cleavage, SEC); not shown: His6-SUMO, N-terminal, cleaved; AviTag, C-terminal, kept
T1 sequence (P06241 142-248): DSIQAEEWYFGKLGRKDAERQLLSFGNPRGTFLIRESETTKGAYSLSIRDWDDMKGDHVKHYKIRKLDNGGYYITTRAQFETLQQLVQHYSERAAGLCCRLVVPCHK
Non-standard residues stand in square brackets, D forms with d. pY = N[C@@H](Cc1ccc(OP(=O)(O)O)cc1)C(=O)O
For each entry below, report its pKd value.
pKd is a log-scale quantity: -log10 of the concentration expressed in molar.

The binder listed as Ac-QPIFEG[pY]ALPHAG-NH2 (SMILES CC[C@H](C)[C@H](NC(=O)[C@@H]1CCCN1C(=O)[C@H](CCC(N)=O)NC(C)=O)C(=O)N[C@@H](Cc1ccccc1)C(=O)N[C@@H](CCC(=O)O)C(=O)NCC(=O)N[C@@H](Cc1ccc(OP(=O)(O)O)cc1)C(=O)N[C@@H](C)C(=O)N[C@@H](CC(C)C)C(=O)N1CCC[C@H]1C(=O)N[C@@H](Cc1c[nH]cn1)C(=O)N[C@@H](C)C(=O)NCC(N)=O, flank added to the 11-residue stretch (surmised: last residue of the library's constant GQSGQ); ACTA1, human, around pY171; flank added to the 11-residue stretch (surmised: first residue of the library's constant GGQSG); also called ACTA1 pTyr Y171; source: synthetic peptide (SynPeptide, China)) [ACTA1 pY171] has a reported pKd of 7.33

The binder listed as Ac-QSLEKS[pY]ELLDGG-NH2 (SMILES CC(=O)N[C@@H](CCC(N)=O)C(=O)N[C@@H](CO)C(=O)N[C@@H](CC(C)C)C(=O)N[C@@H](CCC(=O)O)C(=O)N[C@@H](CCCCN)C(=O)N[C@@H](CO)C(=O)N[C@@H](Cc1ccc(OP(=O)(O)O)cc1)C(=O)N[C@@H](CCC(=O)O)C(=O)N[C@@H](CC(C)C)C(=O)N[C@@H](CC(C)C)C(=O)N[C@@H](CC(=O)O)C(=O)NCC(=O)NCC(N)=O, flank added to the 11-residue stretch (surmised: last residue of the library's constant GQSGQ); ACTB, human, around pY240, natural variant P243L; flank added to the 11-residue stretch (surmised: first residue of the library's constant GGQSG); source: synthetic peptide (SynPeptide, China)) [ACTB pY240 P243L] has a reported pKd of 6.85

The measurements presented in this section are drawn from paper doi:10.1101/2024.12.23.630085.
